Taken from paper PMC8560851.

Below, each entry is listed alongside its reported pKd.
target: T1, Full-length isoform 165 of human VEGF-A (Homo sapiens, VEGF-A isoform 165, UniProt P15692-4); experiment: SPR; Biacore T200, 25 °C, PBS with 0.05% Tween 20 and 3.4 mM EDTA; VEGF-A amine-coupled to a CM-5 chip; Fab injected in single cycle kinetics with five increasing concentrations; double referenced; fit to a 1:1 Langmuir binding model; conditions: both partners purified
T1 construct: VEGF-A isoform 165, human; Immobilised by amine coupling for SPR; Made in HEK cells, so probably the secreted 165-residue form without signal peptide (surmise); source: HEK, recombinant, purified
T1 sequence (P15692 other isoform, or with tags, fused parts or gaps): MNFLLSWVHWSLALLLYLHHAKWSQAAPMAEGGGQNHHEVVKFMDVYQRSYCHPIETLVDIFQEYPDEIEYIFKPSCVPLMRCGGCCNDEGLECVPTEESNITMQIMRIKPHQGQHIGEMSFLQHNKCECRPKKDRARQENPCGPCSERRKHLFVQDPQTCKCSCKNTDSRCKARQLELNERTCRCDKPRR
API: returns pKd as number; meaning -log10 of concentration in mol/L.

{"columns": ["binder", "observable", "observed-measurement"],
 "data": [
  ["bH1 Fab H3 variant 14_0130 (Fab, V domains shown, also in PDB 7KF1; also called design 14_0130; source: CHO-3E7, co-transfected, purified from supernatant (HisTrap IMAC, SEC Superdex-200)) VH: EVQLVESGGGLVQPGGSLRLSCAASGFNIKDTYIHWVRQAPGKGLEWVARIYPTNGYTRYADSVKGRFTISADTSKNTAYLQMNSLRAEDTAVYYCAKLGIGYYYYGMDVWGQGTLVTVSS VL: DIQMTQSPSSLSASVGDRVTITCRASQDIPRSISGYVAWYQQKPGKAPKLLIYWGSYLYSGVPSRFSGSGSGTDFTLTISSLQPEDFATYYCQQHYTTPPTFGQGTKVEIK", "pKd", 5.55]
]}

Switching to the query record.
Supply reported pKd belonging to this binder: bH1 Fab H3 variant 15_0485 (Fab, V domains shown, source: CHO-3E7, co-transfected, purified from supernatant (HisTrap IMAC, SEC Superdex-200)) VH: EVQLVESGGGLVQPGGSLRLSCAASGFNIKDTYIHWVRQAPGKGLEWVARIYPTNGYTRYADSVKGRFTISADTSKNTAYLQMNSLRAEDTAVYYCARHGVRGYYYYYMDVWGQGTLVTVSS VL: DIQMTQSPSSLSASVGDRVTITCRASQDIPRSISGYVAWYQQKPGKAPKLLIYWGSYLYSGVPSRFSGSGSGTDFTLTISSLQPEDFATYYCQQHYTTPPTFGQGTKVEIK
6.51
